# Test system: Canis familiaris
# assayNotes: Percent change in renal vascular resistant e by 6.2 mg/kg of compound administered intravenously in dog
# Type: functional, Canis lupus familiaris
# conditionDescription: route intravenous
recordedEndpoint: Change (%)
Answer with a number only, understood to be in %.

Report Change for CCCCOC(=O)Nc1c(O)nc(C)c2cc(OC)c(OC)cc12 please.
29

Note, next up: CCCCNC(=O)Nc1c(O)nc(C)c2cc(OC)c(OC)cc12
-52

Input COc1cc2c(C)nc(O)c(N)c2cc1OC
-13

Moving on to COc1cc2c(C)nc(O)c(NC(=O)Nc3cccc(C(F)(F)F)c3)c2cc1OC
-16

Same thing, different compound: COc1cc2c(C)nc(O)c(NC(C)=O)c2cc1OC
-24

Please give the result for COc1ccc(NC(=O)Nc2c(O)nc(C)c3cc(OC)c(OC)cc23)cc1 too.
-32

Thanks! And COc1cc2c(C)nc(O)c(NC(=O)C(C)C)c2cc1OC ?
-4

What do you get for COc1ccc(NC(=O)Nc2c(O)nc(C)c3c(OC)c(OC)c(OC)cc23)cc1 ?
-15

Also check C=CCOC(=O)Nc1c(O)nc(C)c2cc(OC)c(OC)cc12
-11

What do you get for COc1cc2c(C)nc(O)c(NC(=O)Nc3ccc(C(F)(F)F)cc3)c2cc1OC ?
-29

What about CCCCCC(=O)Nc1c(O)nc(C)c2cc(OC)c(OC)cc12 ?
40

What do we get for CCOc1cc2c(C)nc(O)c(NC(=O)Nc3ccc(OC)cc3)c2cc1OC ?
15

Next compound up: COc1cc2cnc(O)c(NC(C)=O)c2cc1OC
-12

Try COc1cccc(NC(=O)Nc2c(O)nc(C)c3cc(OC)c(OC)cc23)c1 next.
-36

Same for COc1cc2c(C)nc(O)c(NC(=O)NC(C)(C)C)c2cc1OC
-8

What about CCCCC(=O)Nc1c(O)nc(C)c2cc(OC)c(OC)cc12 ?
13

* * *

# Tested on: Canis familiaris
# assayNotes: Percent change in mean arterial blood pressure by 1.2 mg/kg of compound administered intravenously in dog
# Format: functional, Canis lupus familiaris
# conditionDescription: route intravenous
recordedEndpoint: Change
Hi, when you answer, please include the unit after the number. Thanks!

Return reported Change; argument: COc1cc2c(C)nc(O)c(NC(=O)Nc3ccc(C(=O)O)cc3)c2cc1OC
-1%

// same read-out, input: CCNC(=O)Nc1c(O)nc(C)c2cc(OC)c(OC)cc12
0%

Now give it for COc1cccc(NC(=O)Nc2c(O)nc(C)c3c(OC)c(OC)ccc23)c1 too.
-3%

Query CNC(=O)Nc1c(O)nc(C)c2cc(OC)c(OC)cc12 next
4%

And then CCCCNC(=O)Nc1c(O)nc(C)c2cc(OC)ccc12 , what is it?
3%

Then what about the compound CCCCNC(=O)Nc1c(O)nc(C)c2cc(OC)c(OC)cc12 ?
-3%

* * *

# Tested on: Canis familiaris
# assayNotes: Percent change in renal vascular resistant e by 1.2 mg/kg of compound administered intravenously in dog
# Format: functional, Canis lupus familiaris
# conditionDescription: route intravenous
recordedEndpoint: Change (%)
Field: numeric (%). Do not append units.

So what does the record say about Change for COc1cccc(NC(=O)Nc2c(O)nc(C)c3cc(OC)ccc23)c1 ?
-4

Same question for COc1cc2c(C)nc(O)c(NC(=O)Nc3ccc([N+](=O)[O-])cc3)c2cc1OC please.
-2

Subsequent entry: CCCCNC(=O)Nc1c(O)nc(C)c2cc(OC)ccc12
16

Now this one: C=CCNC(=O)Nc1c(O)nc(C)c2cc(OCC)c(OC)cc12
-22

Similarly, COc1cc2c(C)nc(O)c(NC(=O)Nc3ccc(C(=O)O)cc3)c2cc1OC ?
-28

And then COc1cc2c(C)nc(O)c(NC(=O)NC(C)C)c2cc1OC , what is it?
-10

Queued: CCCCNC(=O)Nc1c(O)nc(C)c2cc(O)c(O)cc12
2

Entry to check: CNC(=O)Nc1c(O)nc(C)c2cc(OC)c(OC)cc12
-5

Follow-up item: CCNC(=O)Nc1c(O)nc(C)c2cc(OC)c(OC)cc12
-22

How about this compound: CCCCNC(=O)Nc1c(O)nc(C)c2cc(OC)c(OC)cc12
-27
